- assay protocol: chemical genetic growth profiling, strain panel (AID 1159580);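 further: tested at 20 µM; growth read once vehicle control cultures reached saturation at 30 °C; 1 = growth at the plate median or of vehicle wells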
- recorded conditions: S. cerevisiae deletion strains, growth OD, locus YMR263W, strain SAP30, stronger effect = lower value
Screen size: about 5,500 compounds; about 2,000 (36%) were called active. Another 18% or so got no clear call; they are omitted. The list shows a part of the results.
measurement type: normalized growth

INSERT INTO assay_data (compound, measured_result) VALUES
  ('CN1C(=O)CC[C@H]1c1cccnc1', '1 (inactive)'),
  ('COc1ccccc1N1CC(C)(C)C(=O)N(C(=O)c2c(F)cccc2Cl)C1=S', '0.954 (inactive)'),
  ('C[N+]12CCC(CC1)C(OC(=O)C(O)(c1ccccc1)c1ccccc1)C2 (centres undefined)', '0.985 (inactive)'),
  ('CNC(=O)c1cc2c(cn1)[nH]c1ccccc12', '1 (inactive)');

====

Each record here notes measured normalized growth.
- assay protocol: chemical genetic growth profiling, strain panel (AID 1159580);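 further: tested at 20 µM; growth read once vehicle control cultures reached saturation at 30 °C; 1 = growth at the plate median or of vehicle wells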
- recorded conditions: S. cerevisiae deletion strains, growth OD, locus YJL134W, strain LCB3, stronger effect = lower value
Out of some 5,500 compounds screened, about 2,000 (36%) were called active. Inconclusive results (about 18%) are left out. This is one part of the list.
measurement type: normalized growth

INSERT INTO measurements (molecule, measurement_type, measured_result) VALUES
  ('COc1cc(O)ccc1C(C)=O', 'normalized growth', 0.989),
  ('COc1cc([C@@H]2c3cc4c(cc3[C@H](O)[C@H]3COC(=O)[C@H]23)OCO4)cc(OC)c1OC', 'normalized growth', 1.01),
  ('O=C(O)c1cc(=O)c2ccccc2[nH]1', 'normalized growth', 0.982),
  ('O=C(Nc1ccc([N+](=O)[O-])cc1Cl)c1cc(Cl)ccc1O', 'normalized growth', 0.978),
  ('Cn1c(=O)c2c(ncn2C)n(C)c1=O', 'normalized growth', 1),
  ('CC1(C)CC23C(=O)CCC(O)C2(C)CCC13 (stereo unspecified)', 'normalized growth', 1.01),
  ('COc1cc(OC)c2c(OC)c(-c3ccc4c(c3)OCO4)c(=O)oc2c1', 'normalized growth', 0.991),
  ('COc1ccc(-c2c(OC)c3c(OC)c4c(cc3oc2=O)OC(C)(C)C=C4)cc1', 'normalized growth', 0.991),
  ('O=C(c1ccccc1)c1ccc2n1CCC2C(=O)O (stereo unspecified)', 'normalized growth', 0.99),
  ('COc1ccc(-c2c(O)c3c(OC)c4c(cc3oc2=O)OC(C)(C)C=C4)cc1', 'normalized growth', 0.942),
  ('Cn1cnc2c1c(=O)[nH]c(=O)n2C', 'normalized growth', 1.01);

====

- assay protocol: chemical genetic growth profiling, strain panel (AID 1159580);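 further: tested at 20 µM; growth read once vehicle control cultures reached saturation at 30 °C; 1 = growth at the plate median or of vehicle wells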
- recorded conditions: S. cerevisiae deletion strains, growth OD, locus YBR023C, strain chs3
Hit rate of the full screen: of about 5,500 compounds, about 2,000 (36%) were called active. Another 18% or so got no clear call; they are omitted. No stated cut-off is given here; in the data, active means normalized growth mostly below about 0.91 (no sharp cut-off); inconclusive means no clear call, values can overlap the other calls; inactive means mostly above about 0.92. This is one part of the list.
Possible outcomes: active, inactive

INSERT INTO measurements (compound, class_name) VALUES
  ('C=CC[C@@H]1/C=C(\C)C[C@H](C)C[C@H](OC)[C@H]2O[C@@](O)(C(=O)C(=O)N3CCCC[C@H]3C(=O)O[C@H](/C(C)=C/[C@@H]3CC[C@@H](O)[C@H](OC)C3)[C@H](C)[C@@H](O)CC1=O)[C@H](C)C[C@@H]2OC', 'inactive'),
  ('CNC(C)[C@@H]1CC[C@@H](N)[C@@H](OC2[C@@H](N)C[C@@H](N)[C@H](OC3OC[C@](C)(O)[C@H](NC)[C@H]3O)[C@H]2O)O1 (some centres not stated)', 'inactive'),
  ('NC(Cc1ccc(Cl)cc1)C(=O)O (configuration not stated)', 'inactive'),
  ('O=C(/C=C/c1ccccc1)c1ccc(O[C@@H]2O[C@H](CO)[C@@H](O)[C@H](O)[C@H]2O)cc1O', 'active'),
  ('OC[C@H]1O[C@@H](Oc2ccc(O)cc2)[C@H](O)[C@@H](O)[C@@H]1O', 'inactive'),
  ('O=C(/C=C/c1ccc(O)cc1)c1ccc(O)cc1O', 'inactive'),
  ('COc1ccc(CC(=O)c2ccc(O)cc2O)cc1', 'inactive');
